Test system: INS-1E rat beta cells, no cytokines, CellTiter-Glo ATP, 48 h
assayComment: cytokine-free beta-cell viability effect – INS-1E rat cells, ATP luminescence, cherry pick, counter-screen for beta-cell apoptosis protection project, dose response (AID 463229)
readout: AC50

Return AC50 (reported value) for this compound: COc1ccc(OC)c(NC(=O)CSc2nnc(-c3cccnc3)s2)c1
7.37 µM

Return AC50 (reported value) for this compound: COC(=O)c1ccc(NC(=O)c2nc(S(=O)(=O)Cc3cccc(C)c3)ncc2Cl)cc1
10.8 µM

Return AC50 (reported value) for this compound: COc1ccc(/C=N/Nc2cc(C)nc(-n3nc(C)cc3C)n2)cc1
16.1 µM

Return AC50 (reported value) for this compound: CC(C)CNC(=O)COC(=O)c1c2c(nc3ccccc13)/C(=C/c1cccs1)CC2
1.5 µM

Return AC50 (reported value) for this compound: O=C(Nc1nc2ccccc2s1)c1cc(-c2ccccc2)nn1-c1ccccc1
3.74 µM

Return AC50 (reported value) for this compound: CCN(CC)c1ccc(/C=N/NC(=O)c2nnn(-c3nonc3N)c2C(C)C)c(O)c1
1.16 µM

Return AC50 (reported value) for this compound: COc1ccc(C2/C=C\CN(C(=O)Nc3ccc(C(F)(F)F)cc3)CC(=O)N2Cc2ccc(F)cc2)cc1 (configuration not stated)
7.66 µM

Return AC50 (reported value) for this compound: CN1/C(=C\C(=O)CN2C(=O)NC3(CCCCCC3)C2=O)C(C)(C)c2ccccc21
7.99 µM

Return AC50 (reported value) for this compound: Cn1nc(C(C)(C)C)cc1C(=O)NCc1cc(F)cc2c1OCOC2
5.86 µM

Return AC50 (reported value) for this compound: COc1cccc(/C=N/Nc2nc(Nc3ccccc3)nc(-n3nc(C)cc3C)n2)c1O
12.3 µM

Return AC50 (reported value) for this compound: O=C(CCCCCCCCCCC(=O)NCc1cccnc1)NCc1cccnc1
< 0.195 µM

Return AC50 (reported value) for this compound: O=C(N/N=C(\c1ccccc1)c1cccnc1)c1cccc(F)c1
2.56 µM

Return AC50 (reported value) for this compound: CCN1c2ccccc2NC2N=C(OC)C(c3ccccc3)C21 (configuration not stated)
13.1 µM

Return AC50 (reported value) for this compound: Cn1nccc1C(=O)NC1CCCc2c1cnn2-c1ccc(F)cc1F (configuration not stated)
2.48 µM

Return AC50 (reported value) for this compound: CC(C)(C)c1ccc(CSc2cnn(C(C)(C)C)c(=O)c2Cl)cc1
< 0.195 µM

Return AC50 (reported value) for this compound: CCn1c(-c2ccc(C)cc2)nn(CC(=O)NCCc2ccccc2)c1=S
7.22 µM

Return AC50 (reported value) for this compound: Oc1ccc(Nc2nc(N3CCCC3)c3ccccc3n2)cc1
18.9 µM

Return AC50 (reported value) for this compound: Cc1ccc(Nc2nc(NCc3ccco3)c3ccccc3n2)cc1
8.02 µM

Return AC50 (reported value) for this compound: CC(C)(C)CN1CCC(Oc2cccc(C(=O)NCCCOc3cccnc3)c2)CC1
2.13 µM

* * *

System: INS-1E rat beta cells, no cytokines, CellTiter-Glo ATP, 48 h
assayComment: cytokine-free beta-cell viability effect – INS-1E rat cells, ATP luminescence, cherry pick, counter-screen for beta-cell apoptosis protection project, dose response (AID 463229)
readout: AC50

Known results for compounds:
compound	AC50
CCC(=O)NC(c1cccs1)c1ccc2cccnc2c1O (configuration not stated)	3.37 µM
O=C(/C=C/c1cccc(Cl)c1)c1ccc([N+](=O)[O-])o1	3.68 µM
CC1(C)CC(N2CCN(c3ccccc3)CC2)=CC(=[N+]2CCCC2)C1	1.79 µM
CC1=C(C)/C(=N\OS(=O)(=O)c2ccccc2)C=CC1=O	4.13 µM
O=C(Nc1ccc(Cl)cc1)Nc1nnc(CSCc2ccc(Cl)cc2)s1	6.74 µM

Return AC50 (reported value) for this compound: O=C(Oc1c(CN2CCOCC2)cc(Cl)c2cccnc12)c1cccs1
16 µM

Return AC50 (reported value) for this compound: COc1ccc(C(=O)N/N=C/c2sc3ccccc3c2O)cc1
7.83 µM

Return AC50 (reported value) for this compound: O=[N+]([O-])c1ccc(Sc2cccc3cccnc23)c([N+](=O)[O-])c1
14.5 µM

Return AC50 (reported value) for this compound: O=C(CCCc1nc(-c2ccc(Cl)cc2)no1)NC1CCCC1
13.5 µM

Return AC50 (reported value) for this compound: CCn1c(Cl)c(C=O)s/c1=N\S(=O)(=O)c1ccccc1
6.63 µM

Return AC50 (reported value) for this compound: CC(=O)c1c(C)[nH]c(C(=O)OCC(=O)Nc2ccc(C)cc2[N+](=O)[O-])c1C
1.6 µM

Return AC50 (reported value) for this compound: Cc1cc(N2CCCC2=O)cc(C)c1S(=O)(=O)NCCOc1ccc(C(C)(C)C)cc1
3 µM

Return AC50 (reported value) for this compound: C=CCc1cccc(/C=N/NC(=O)c2ccc3nc[nH]c3c2)c1O
6.52 µM

Return AC50 (reported value) for this compound: CCn1c(=O)c([N+](=O)[O-])c(Cl)c2ccccc21
7.4 µM

* * *

Entries and their AC50
Test system: INS-1E rat beta cells, no cytokines, CellTiter-Glo ATP, 48 h
assayComment: cytokine-free beta-cell viability effect – INS-1E rat cells, ATP luminescence, cherry pick, counter-screen for beta-cell apoptosis protection project, dose response (AID 463229)

Known results for compounds:
givenSmiles	assayTarget	readout	endpointResult
Cc1ccc(-n2c(-c3ccccc3)c[n+]3c2CCC3)cc1	INS-1E rat beta cells, no cytokines, CellTiter-Glo ATP, 48 h	AC50	3.11 µM
Oc1ccccc1/C=N/Nc1nc2ccccc2o1	INS-1E rat beta cells, no cytokines, CellTiter-Glo ATP, 48 h	AC50	4.62 µM
CCc1ccc(C(=O)NNc2cc(Cl)ccc2Cl)cc1	INS-1E rat beta cells, no cytokines, CellTiter-Glo ATP, 48 h	AC50	8 µM

Return AC50 (reported value) for this compound: N#CC(C#N)=C1C=CC=CN1/C(=C\c1ccco1)C(=O)c1ccc(Br)cc1
8.57 µM

Return AC50 (reported value) for this compound: COC(=O)c1ccc(NC(=O)c2cccnc2)cc1
7.58 µM

Return AC50 (reported value) for this compound: Cc1ccc(S(=O)(=O)/N=C2\C=C(Nc3ccc(O)cc3)C(=O)c3ccccc32)cc1
1.91 µM

Return AC50 (reported value) for this compound: Cc1ccc(N=Nc2c(O)ccc3n[nH]nc23)cc1
4.37 µM

Return AC50 (reported value) for this compound: COC(=O)c1sc(-c2ccc(C(C)(C)C)cc2)cc1NC(=O)/C=C/C(=O)O
13.8 µM

Return AC50 (reported value) for this compound: COC(=O)C1CCN(C(=O)c2cc(-c3ccc(Cl)s3)nc3ccccc23)CC1
3.24 µM

Return AC50 (reported value) for this compound: Cc1ccc(/C=C/C(=O)c2ccc([N+](=O)[O-])o2)cc1
7.11 µM

Return AC50 (reported value) for this compound: O=C(c1cc(-c2cccc(Cl)c2)nc2ccccc12)N1CCN(c2ccccn2)CC1
12.4 µM

* * *

Tested on: INS-1E rat beta cells, no cytokines, CellTiter-Glo ATP, 48 h
assayComment: cytokine-free beta-cell viability effect – INS-1E rat cells, ATP luminescence, cherry pick, counter-screen for beta-cell apoptosis protection project, dose response (AID 463229)
readout: AC50

compound	AC50
Cc1ccc(C(=O)Nc2cccc3[nH]c(C(F)(F)F)nc23)cc1	13.3 µM
CCOC(=O)c1c(C)[nH]c(C)c1C(=O)CSc1nc2ccccc2c(=O)n1-c1ccc(CC)cc1	5.33 µM
COc1cc(CNC2CCCC2)cc(Cl)c1OCc1ccccc1Cl	14.6 µM
O=S(=O)(c1cc(F)ccc1F)N1CCN(c2ncnc3ccccc23)CC1	5.01 µM
FC(F)(F)c1cnc(NNC(=S)Nc2ccc(Cl)cc2)c(Cl)c1	6.99 µM
Cc1cc(C)c2c(N)c3cccc(C)c3nc2n1	7.91 µM
Cc1cc(C(=O)CSc2nc3ccccc3c(=O)n2C)c(C)n1Cc1ccc2c(c1)OCO2	2.07 µM
Cc1cccc(C(=O)Nc2ccc(C(=O)/C=C/c3cccnc3)cc2)c1	7.53 µM

--- query ---
Return AC50 (reported value) for this compound: c1ccc2c(CN3CCCCCCC3)c[nH]c2c1
4.48 µM

* * *

Test system: INS-1E rat beta cells, no cytokines, CellTiter-Glo ATP, 48 h
assayComment: cytokine-free beta-cell viability effect – INS-1E rat cells, ATP luminescence, cherry pick, counter-screen for beta-cell apoptosis protection project, dose response (AID 463229)
readout: AC50

Known results for compounds:
compound	AC50
CCN1CCN(Cc2ccc(NC(=O)c3cc(NC(=O)c4cncc(-c5ccc(C#N)cc5)c4)cc(OC)c3)cc2C(F)(F)F)CC1	10.8 µM
CC(=O)N(Cc1ccc(F)cc1)C1=C(NCCc2ccccc2)C(=O)c2ccccc2C1=O	4.13 µM
C#CCOCCOCCOCCNc1nc(N2CCN(C(=O)CCCCCCCCCCNC(=O)[C@H](CCCCN)n3cc(CCO)nn3)CC2)nc(N2CCN(C(=O)CCCCCCCCCCNC(=O)[C@H](CCCCN)n3cc(C[C@@H](C)CC)nn3)CC2)n1	10.6 µM

# lookup: INS-1E rat beta cells, no cytokines, CellTiter-Glo ATP, 48 h AC50, key = Cc1ccccc1CS(=O)(=O)c1nnc([C@H](Cc2ccccc2)NC(=O)OC(C)(C)C)o1
13 µM

# lookup: INS-1E rat beta cells, no cytokines, CellTiter-Glo ATP, 48 h AC50, key = O=C(NC(c1cccnc1)C(F)(F)F)c1cc(COc2ccc3c(c2)CCCC3)on1 (stereo not drawn)
4.62 µM

# lookup: INS-1E rat beta cells, no cytokines, CellTiter-Glo ATP, 48 h AC50, key = OC(c1cc(-c2ccc(Cl)cc2)nc2ccccc12)C1CCCCN1 (stereo not drawn)
15.1 µM

# lookup: INS-1E rat beta cells, no cytokines, CellTiter-Glo ATP, 48 h AC50, key = O=C(c1ccccc1)c1c2c(cc3sc4ccccc4[n+]13)-c1cccc3cccc-2c13
2.26 µM

# lookup: INS-1E rat beta cells, no cytokines, CellTiter-Glo ATP, 48 h AC50, key = Cc1ccccc1-c1cc(C(=O)Nc2sc(C)c(C)c2C(N)=O)c2ccccc2n1
6.8 µM
